Source listed as paper PMC5464344.

biological target: human EP2 receptor (Homo sapiens, UniProt P43116); construct: host or cells: HEK293, transient; membrane preparation; assay: [3H]-PGE2 receptor binding assay, EP2 membranes; conditions: HEK293 membranes; [3H]-PGE2; geometric mean ± SEM; read-out: hEP1-4 receptor binding EP2 Ki
Sequence (P43116 whole entry): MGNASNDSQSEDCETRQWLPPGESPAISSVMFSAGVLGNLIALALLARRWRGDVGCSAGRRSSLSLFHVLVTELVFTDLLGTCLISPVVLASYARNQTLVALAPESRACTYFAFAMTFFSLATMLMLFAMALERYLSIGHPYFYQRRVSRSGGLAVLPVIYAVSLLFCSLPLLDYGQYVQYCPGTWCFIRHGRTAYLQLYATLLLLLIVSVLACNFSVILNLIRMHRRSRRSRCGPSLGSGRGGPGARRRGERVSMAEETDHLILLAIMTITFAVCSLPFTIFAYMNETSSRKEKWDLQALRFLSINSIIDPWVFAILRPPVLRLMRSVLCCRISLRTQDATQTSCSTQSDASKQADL
Documented Ki across a set of compounds
Reply with just the number (in nM).

| compound | measured_parameter | obs_value |
| --- | --- | --- |
| C[C@H](NC(=O)[C@H]1CCCCN1CCOc1ccccc1)c1ccc(C(=O)O)cc1 | Ki | 1210 |

Proceeding to the next compound to report its Ki.
Return Ki (reported value) for this compound: C[C@H](NC(=O)c1cc(Cl)ccc1Oc1ccc(F)cc1)c1ccc(C(=O)O)cc1 [CJ‐042,794, reference compound] 931
